Sourced from patent US5498618A

# system: 5HT2 serotonin receptor (Rattus norvegicus)
# Construct: Cell membrane fractions, prepared from tissue homogenates or cells; from tissue
# experimental.protocol: 5HT2 receptor binding, [3H]ketanserin displacement
# experimental.setup: read-out: IC50 (inhibition of [3H]-ligand binding) (converted)
The entries below come with measured IC50 values attached.
Give the number; nM is assumed, so skip it.

| smiles.code | measurement.kind | recorded.result |
| --- | --- | --- |
| COc1cc(N)c(Cl)cc1C(=O)NC1(C)CCN(CCCOc2ccc(F)cc2)CC1 | IC50 | 0.251 |
| COc1cc(N)c(Cl)cc1C(=O)NC1(C)CCN(CCCOc2ccc(F)cc2Br)CC1 | IC50 | 0.631 |

Next up:
// IC50 value for COc1cc(N)c(I)cc1C(=O)NC1(C)CCN(CCCOc2ccc(F)cc2)CC1 : 0.603

====

# system: 5HT2 serotonin receptor (Rattus norvegicus, UniProt P14842)
# Construct: Cell membrane fractions, prepared from tissue homogenates or cells; from tissue
# Sequence (P14842 whole entry): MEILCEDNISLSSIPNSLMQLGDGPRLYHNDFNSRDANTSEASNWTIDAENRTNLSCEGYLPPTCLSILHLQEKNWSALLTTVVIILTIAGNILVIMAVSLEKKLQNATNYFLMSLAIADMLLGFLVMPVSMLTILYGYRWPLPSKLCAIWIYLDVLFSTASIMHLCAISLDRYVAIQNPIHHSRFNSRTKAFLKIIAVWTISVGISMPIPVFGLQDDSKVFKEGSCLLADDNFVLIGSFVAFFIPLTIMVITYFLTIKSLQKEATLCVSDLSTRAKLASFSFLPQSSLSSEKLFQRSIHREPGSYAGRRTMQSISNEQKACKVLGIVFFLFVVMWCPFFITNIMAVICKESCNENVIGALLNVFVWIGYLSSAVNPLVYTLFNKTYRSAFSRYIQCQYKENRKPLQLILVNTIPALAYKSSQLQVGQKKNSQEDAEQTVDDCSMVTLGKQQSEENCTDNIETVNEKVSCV
# experimental.protocol: 5HT2 receptor binding, [3H]ketanserin displacement
# experimental.setup: read-out: IC50 (inhibition of [3H]-ligand binding) (converted)
measurement.kind: IC50 (nM)
# unit: nM | format: bare number

| molecule | IC50 (nM) |
| --- | --- |
| COc1cc(N)ccc1C(=O)NC1(C)CCN(CCCOc2ccc(F)cc2)CC1 | 0.178 |
| COc1cc(N=[N+]=[N-])c(Br)cc1C(=O)NC1(C)CCN(CCCOc2ccc(F)cc2)CC1 | 3.55 |
| COc1cc(N=[N+]=[N-])c(I)cc1C(=O)NC1(C)CCN(CCCOc2ccc(F)cc2)CC1 [Compound 7, hemihydrate] | 7.41 |

The measured IC50 associated with COc1cc(N)c(Br)cc1C(=O)NC1(C)CCN(CCCOc2ccc(F)cc2)CC1 reads 0.661

====

// reported IC50 per item
# system: 5HT3 serotonin receptor (Mus musculus, UniProt P23979)
# Construct: Cell membrane fractions, prepared from tissue homogenates or cells; endogenous in cells
# Sequence (P23979 24-489): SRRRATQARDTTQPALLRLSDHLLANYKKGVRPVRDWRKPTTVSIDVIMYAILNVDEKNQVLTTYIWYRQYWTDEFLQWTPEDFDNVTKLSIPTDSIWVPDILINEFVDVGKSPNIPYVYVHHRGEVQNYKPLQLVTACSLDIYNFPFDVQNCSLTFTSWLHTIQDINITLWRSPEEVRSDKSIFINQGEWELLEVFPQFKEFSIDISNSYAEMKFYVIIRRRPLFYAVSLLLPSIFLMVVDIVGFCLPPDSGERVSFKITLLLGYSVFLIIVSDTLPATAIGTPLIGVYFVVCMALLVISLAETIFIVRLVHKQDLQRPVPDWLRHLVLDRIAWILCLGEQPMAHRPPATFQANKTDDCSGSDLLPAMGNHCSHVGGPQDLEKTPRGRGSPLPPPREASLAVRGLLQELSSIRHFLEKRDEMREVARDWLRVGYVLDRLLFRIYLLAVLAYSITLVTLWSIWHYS
# experimental.protocol: 5HT3 receptor binding, [3H]GR65630 displacement
# experimental.setup: read-out: IC50 (inhibition of [3H]-ligand binding) (converted)
Provide a numeric answer, followed by its unit.

Solved cases below.
| compound | IC50 |
| --- | --- |
| COc1cc(N)c(Br)cc1C(=O)NC1(C)CCN(CCCOc2ccc(F)cc2)CC1 | 1440 nM |
| COc1cc(N)c(Cl)cc1C(=O)NC1(C)CCN(CCCOc2ccc(F)cc2Br)CC1 | 191 nM |

Read the next record carefully.
Sure, the documented IC50 for COc1cc(N=[N+]=[N-])c(I)cc1C(=O)NC1(C)CCN(CCCOc2ccc(F)cc2)CC1 [Compound 7, hemihydrate] is 10000 nM

====

# system: histamine-H1 receptor (Cavia porcellus)
# Construct: Cell membrane fractions, prepared from tissue homogenates or cells; from tissue
# Sequence (P31389 whole entry): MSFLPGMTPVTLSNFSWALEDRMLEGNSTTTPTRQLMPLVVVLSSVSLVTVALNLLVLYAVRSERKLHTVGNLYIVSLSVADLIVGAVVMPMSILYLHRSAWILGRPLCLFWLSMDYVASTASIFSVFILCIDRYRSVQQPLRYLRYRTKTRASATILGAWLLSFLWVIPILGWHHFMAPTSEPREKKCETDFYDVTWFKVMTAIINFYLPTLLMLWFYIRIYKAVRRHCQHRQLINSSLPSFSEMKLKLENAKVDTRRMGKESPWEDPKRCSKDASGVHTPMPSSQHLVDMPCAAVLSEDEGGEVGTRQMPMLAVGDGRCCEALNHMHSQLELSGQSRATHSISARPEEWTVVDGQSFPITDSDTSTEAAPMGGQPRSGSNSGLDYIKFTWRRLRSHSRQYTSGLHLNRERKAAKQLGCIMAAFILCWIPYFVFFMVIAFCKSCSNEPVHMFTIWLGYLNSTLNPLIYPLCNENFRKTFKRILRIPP
# experimental.protocol: histamine-H1 receptor binding, [3H]pyrilamine displacement
# experimental.setup: read-out: IC50 (inhibition of [3H]-ligand binding) (converted)
Param label: returns 1 when IC50 < 6 µM, returns 0 otherwise, including exact equality.

| molecule | cat |
| --- | --- |
| COc1cc(N)ccc1C(=O)NC1(C)CCN(CCCOc2ccc(F)cc2)CC1 | 1 |
| COc1cc(N)c(Cl)cc1C(=O)NC1(C)CCN(CCCOc2ccc(F)cc2Br)CC1 | 1 |
| COc1cc(N)c(Cl)cc1C(=O)NC1(C)CCN(CCCOc2ccc(F)cc2)CC1 | 1 |

Please find the next molecule below.
Identify whether the molecule COc1cc(N=[N+]=[N-])c(I)cc1C(=O)NC1(C)CCN(CCCOc2ccc(F)cc2)CC1 [Compound 7, hemihydrate] records IC50 below 6 µM.
0

====

# Tested on: serotonin-induced contraction of caudal artery of the rat
# experimental.protocol: Antagonistic activity on the effect of serotonin on the caudal artery of the rat
# Assay type: cell-based
# experimental.setup: 5 min; rat caudal artery strips; serotonin 40 ng/ml; 5 minutes after adding the drug; read-out: ED50 (minimal concentration which reduces the amplitude of the contractions by at least 50% of its normal value)
# Description: Antagonistic activity on the effect of serotonin on the caudal artery of the rat. Caudal arteries from the fasted male rats (210-235 g) were used in the test. Two helical strips having a length of 5-6 cm and a width of 2 mm were obtained from each artery and mounted vertically in a 100 ml organ bath containing an oxygenated Krebs-Henseleit solution. […] The amplitude of the contractions was measured before and 5 minutes after adding the drug. […]
The compounds listed here are annotated with their IC50.
I'd appreciate it if you included the unit after the number.

A selection of reference data follows.
| smiles.code | IC50 |
| --- | --- |
| COc1cc(N)c(Cl)cc1C(=O)NC1(C)CCN(CCCOc2ccc(F)cc2Br)CC1 | 0.12 nM |
| COc1cc(N)ccc1C(=O)NC1(C)CCN(CCCOc2ccc(F)cc2)CC1 | 0.213 nM |
| COc1cc(N)c(Cl)cc1C(=O)NC1(C)CCN(CCCOc2ccc(F)cc2)CC1 | 0.15 nM |

// next entry
Notebook: COc1cc(N)c(I)cc1C(=O)NC1(C)CCN(CCCOc2ccc(F)cc2)CC1 , IC50 read as 0.27 nM

====

Documented log10(IC50) across a set of compounds
# system: 5HT1A serotonin receptor (Homo sapiens, UniProt P08908)
# Construct: expressed in transfected cells
# Sequence (P08908 1-422): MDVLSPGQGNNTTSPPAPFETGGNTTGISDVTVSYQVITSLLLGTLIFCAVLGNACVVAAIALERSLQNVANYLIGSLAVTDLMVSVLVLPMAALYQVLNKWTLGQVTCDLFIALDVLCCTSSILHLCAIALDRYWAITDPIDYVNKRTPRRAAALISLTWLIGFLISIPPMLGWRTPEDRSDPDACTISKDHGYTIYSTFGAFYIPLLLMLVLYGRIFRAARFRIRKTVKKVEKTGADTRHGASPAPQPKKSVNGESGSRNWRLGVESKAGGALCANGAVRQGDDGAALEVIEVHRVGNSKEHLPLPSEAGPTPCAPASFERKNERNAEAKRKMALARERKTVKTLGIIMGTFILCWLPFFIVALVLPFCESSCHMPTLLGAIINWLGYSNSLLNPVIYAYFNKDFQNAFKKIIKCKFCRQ
# experimental.protocol: 5HT1A receptor binding, [3H]8OHDPAT displacement
# experimental.setup: read-out: IC50 (inhibition of [3H]-ligand binding) (converted)
Lab note - IC50 converted to log10 from values in nM.

Example entries begin here.
| compound | log10(IC50) |
| --- | --- |
| COc1cc(N=[N+]=[N-])c(Br)cc1C(=O)NC1(C)CCN(CCCOc2ccc(F)cc2)CC1 | 2.34 |
| COc1cc(N)c(I)cc1C(=O)NC1(C)CCN(CCCOc2ccc(F)cc2)CC1 | 2.66 |
| COc1cc(N)ccc1C(=O)NC1(C)CCN(CCCOc2ccc(F)cc2)CC1 | 3.35 |
| COc1cc(N=[N+]=[N-])c(I)cc1C(=O)NC1(C)CCN(CCCOc2ccc(F)cc2)CC1 [Compound 7, hemihydrate] | 1.95 |
| COc1cc(N)c(Br)cc1C(=O)NC1(C)CCN(CCCOc2ccc(F)cc2)CC1 | 2.61 |
| COc1cc(N)c(Cl)cc1C(=O)NC1(C)CCN(CCCOc2ccc(F)cc2)CC1 | 2.82 |

Continue with the compound presented below.
Per the record, COc1cc(N)c(Cl)cc1C(=O)NC1(C)CCN(CCCOc2ccc(F)cc2Br)CC1 has log10(IC50) of 2.62

====

# system: 5HT3 serotonin receptor (Mus musculus)
# Construct: Cell membrane fractions, prepared from tissue homogenates or cells; endogenous in cells
# experimental.protocol: 5HT3 receptor binding, [3H]GR65630 displacement
# experimental.setup: read-out: IC50 (inhibition of [3H]-ligand binding) (converted)
# Method: Cell membrane fractions, prepared from tissue homogenates or cells, were incubated with a radioactive [^3 H]-labelled substance (described hereinafter as the [^3 H]-ligand) known to bind specifically to a particular receptor, thus labeling this receptor. […] During the incubation the test compounds were able to compete with the [^3 H]-ligand for binding with the receptor. Subsequently the membranes were harvested and the radioactivity was measured as described above. […]
measurement.kind: IC50 (µM)
Unit µM implied. Number only.

| smiles.code | system | recorded.result |
| --- | --- | --- |
| COc1cc(N)c(I)cc1C(=O)NC1(C)CCN(CCCOc2ccc(F)cc2)CC1 | 5HT3 serotonin receptor (Mus musculus) | 4.17 |
| COc1cc(N=[N+]=[N-])c(Br)cc1C(=O)NC1(C)CCN(CCCOc2ccc(F)cc2)CC1 | 5HT3 serotonin receptor (Mus musculus) | 8.32 |

Let's switch to this compound now.
The recorded IC50 for entry COc1cc(N)c(Cl)cc1C(=O)NC1(C)CCN(CCCOc2ccc(F)cc2)CC1 equals 1.7
